assay: Single-dose pharmacokinetics in dogs (plasma, UHPLC/MS/MS); type: in vivo, Beagle dogs; details: both sexes, Beagle, dog, plasma, po, 12.4 mg/kg
experimental-readout: AUC(0-inf)
Give your result as the value with the unit written after it.

So what's the measured AUC(0-inf) for this one? C[C@@H]1O[C@@H](O[C@H]2[C@H](Oc3cc(O)c4c(c3)O[C@H](c3ccc(O)cc3)CC4=O)O[C@H](CO)[C@@H](O)[C@@H]2O)[C@H](O)[C@H](O)[C@H]1O
135 ng·h/mL

###

assay: Single ascending dose and food-effect pharmacokinetics of naringin tablets in healthy humans; assay type: in vivo, human; details: male, human, plasma, po, 160 mg, naringin 160 mg p.o. single dose, high-fat diet group, human, male
experimental-readout: Tmax (h)
The reply should be a number in h, with the unit left off.

Item under review: C[C@@H]1O[C@@H](O[C@H]2[C@H](Oc3cc(O)c4c(c3)O[C@H](c3ccc(O)cc3)CC4=O)O[C@H](CO)[C@@H](O)[C@@H]2O)[C@H](O)[C@H](O)[C@H]1O . Reported Tmax?
2.44

###

Assay: Single ascending dose and food-effect pharmacokinetics of naringin tablets in healthy humans
Type: in vivo, human
Conditions: both sexes, human, plasma, po, 480 mg, naringin 480 mg p.o. single dose
Method: Participants were healthy males and females, 18 to 40 years old, ≥50 kg weight, 19 to 25 kg m^2 body mass index. […] The optimal volume and activity in unit volume of enzyme solution [0.2 M acetic acid/water solution: 0.2 M ammonium acetate/water solution, 15:35 (v/v)] were determined through a pretest of the enzyme (rat plasma, 10 μl, 10 U μl^-1; dog plasma, 10 μl, 10 U μl^-1; human plasma, 20 μl, 20 U μl^-1; human urine, 10 μl, 10 U μl^-1). […]
experimental-readout: Cmax (ng/mL)
Numbers only here, please. The scale is ng/mL.

// Cmax lookup, key: C[C@@H]1O[C@@H](O[C@H]2[C@H](Oc3cc(O)c4c(c3)O[C@H](c3ccc(O)cc3)CC4=O)O[C@H](CO)[C@@H](O)[C@@H]2O)[C@H](O)[C@H](O)[C@H]1O
5.69

###

experiment: Single ascending dose and food-effect pharmacokinetics of naringin tablets in healthy humans; assay type: in vivo, human; settings: male, human, plasma, po, 80 mg, naringin 80 mg p.o. single dose
experimental-readout: Tmax (h)
The reply should contain only the number, in h.

Query: Tmax; subject: C[C@@H]1O[C@@H](O[C@H]2[C@H](Oc3cc(O)c4c(c3)O[C@H](c3ccc(O)cc3)CC4=O)O[C@H](CO)[C@@H](O)[C@@H]2O)[C@H](O)[C@H](O)[C@H]1O
2.75

###

experiment: Single ascending dose and food-effect pharmacokinetics of naringin tablets in healthy humans; assay type: in vivo, human; settings: both sexes, human, plasma, po, 160 mg, naringin 160 mg (high-fat diet) p.o. single dose
experimental-readout: Tmax (h)
Express the result in h but write the number alone.

Bench note: what Tmax did C[C@@H]1O[C@@H](O[C@H]2[C@H](Oc3cc(O)c4c(c3)O[C@H](c3ccc(O)cc3)CC4=O)O[C@H](CO)[C@@H](O)[C@@H]2O)[C@H](O)[C@H](O)[C@H]1O show?
2.66

###

Assay: Multiple-dose pharmacokinetics in rats
Format: in vivo, Sprague Dawley rats
Details: naringin 42 mg kg^-1 multiple dose, rat, female
Method: The optimal volume and activity in unit volume of enzyme solution [0.2 M acetic acid/water solution: 0.2 M ammonium acetate/water solution, 15:35 (v/v)] were determined through a pretest of the enzyme (rat plasma, 10 μl, 10 U μl^-1; dog plasma, 10 μl, 10 U μl^-1; human plasma, 20 μl, 20 U μl^-1; human urine, 10 μl, 10 U μl^-1). […] The compounds were detected by multiple reaction monitoring in the negative ion electrospray mode. […]
experimental-readout: CavSS

Would you kindly share the measured CavSS for O=C1C[C@@H](c2ccc(O)cc2)Oc2cc(O)cc(O)c21 ?
600 ng/mL

Another compound: C[C@@H]1O[C@@H](O[C@H]2[C@H](Oc3cc(O)c4c(c3)O[C@H](c3ccc(O)cc3)CC4=O)O[C@H](CO)[C@@H](O)[C@@H]2O)[C@H](O)[C@H](O)[C@H]1O
17.4 ng/mL

Each recorded value in this set is attributed to paper PMC7118210.
